Measured log10 of IC50, listed per entry for reference.
Tested on: retinoic acid (RA) metabolism
Assay: Inhibition of retinoic acid (RA) metabolism in MCF-7 human breast cancer cells
Assay type: cell-based
Conditions: MCF7, 3H-RA substrate, Table 1
Property name: log10 of IC50 (log10 of the value in nM)

Compound	Observed measurement
O=c1ccc2cc(C(c3cccc(C(F)(F)F)c3)n3cncn3)ccc2[nH]1 (racemic) [Compound 3]	2.93
Cn1c(=S)ccc2cc(C(c3cccc(C(F)(F)F)c3)n3cncn3)ccc21 (racemic) [Compound 21]	3.64
CC(c1cccc(C(F)(F)F)c1)(c1ccc2[nH]c(=O)ccc2c1)n1cncn1 (centres unmarked) [Compound 4]	2.71
CC(C)C(c1cccc(C(F)(F)F)c1)(c1ccc2[nH]c(=O)ccc2c1)n1cncn1 (centres unmarked) [Compound 7]	2.43
CCC(c1cccc(C(F)(F)F)c1)(c1ccc2[nH]c(=O)ccc2c1)n1cncn1 (centres unmarked) [Compound 6]	1.26
Cc1cc(C(c2cccc(C(F)(F)F)c2)n2cncn2)cc2ccc(=O)[nH]c12 (centres unmarked) [Compound 9]	2.85
O=c1ccc2cc(C(c3cccc(C(F)(F)F)c3)n3cncn3)cc(F)c2[nH]1 (centres unmarked) [Compound 11]	2.19
O=c1ccc2cc([C@H](c3cccc(C(F)(F)F)c3)n3cncn3)ccc2[nH]1 [Compound 1]	2.93
